Tested on: 843782-103-R-J1-PDC complex spheroid viability;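 note: viability read after seven days of compound exposure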
METHOD_DESCRIPTION: Anticancer human tumor 843782-103-R-J1-PDC patient-derived lung adenocarcinoma cell line growth inhibition [RAS]
TEST_CONDITIONS: second compound 0.03 µM; first compound 0.316 µM; active compounds read low
Kindly supply the reported viability, T/C values for the records listed here.
Write the value in % as a bare number.

Input line: Give the reported value of viability, T/C for this record: CCC(CC)c1cc(NC2CCC(N)C2)n2nccc2n1 (configuration not stated) + CCn1c(-c2cccnc2C(C)OC)c2c3cc(ccc31)N1CCOC(CC(NC(=O)C(C(C)C)N(C)C(=O)C3(F)CCN(C(=O)C#CC(C)(C)N(C)C)CC3)C(=O)N3CCCC(N3)C(=O)OCC(C)(C)C2)C1
Output line: 71.9

Input line: Report viability, T/C, nothing else, for this molecule: C[C@@H](NC(=O)c1ncnc(N)c1Cl)c1ncc(C(=O)Nc2cc(C(F)(F)F)c(Cl)cn2)s1 + CCn1c(-c2cc(N3CCN(C)CC3)cnc2C(C)OC)c2c3cc(ccc31)-c1csc(n1)CC(NC(=O)C1CC1C)C(=O)N1CCCC(N1)C(=O)OCC(C)(C)C2
Output line: 28.8
